Tested on: Jurkat
Protocol summary: Growth inhibition of human Jurkat cells after 96 hrs
Assay type: functional, cell-based
pIC50: −log10 of the molar value.

| Molecule | Assayed system | pIC50 |
| --- | --- | --- |
| CC[C@@]1(OC(=O)CCC(P(=O)(O)O)P(=O)(O)O)C(=O)OCc2c1cc1n(c2=O)Cc2cc3ccccc3nc2-1 [CAMDRONATE] | Jurkat | 7.68 |
| CC[C@@]1(O)C(=O)OCc2c1cc1n(c2=O)Cc2cc3ccccc3nc2-1 | Jurkat | 8.85 |
